Target: furin, P09958;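 also: purified furin at 1:10 enzyme:substrate in 50 mM HEPES pH 7.5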
Sequence (P09958 whole entry): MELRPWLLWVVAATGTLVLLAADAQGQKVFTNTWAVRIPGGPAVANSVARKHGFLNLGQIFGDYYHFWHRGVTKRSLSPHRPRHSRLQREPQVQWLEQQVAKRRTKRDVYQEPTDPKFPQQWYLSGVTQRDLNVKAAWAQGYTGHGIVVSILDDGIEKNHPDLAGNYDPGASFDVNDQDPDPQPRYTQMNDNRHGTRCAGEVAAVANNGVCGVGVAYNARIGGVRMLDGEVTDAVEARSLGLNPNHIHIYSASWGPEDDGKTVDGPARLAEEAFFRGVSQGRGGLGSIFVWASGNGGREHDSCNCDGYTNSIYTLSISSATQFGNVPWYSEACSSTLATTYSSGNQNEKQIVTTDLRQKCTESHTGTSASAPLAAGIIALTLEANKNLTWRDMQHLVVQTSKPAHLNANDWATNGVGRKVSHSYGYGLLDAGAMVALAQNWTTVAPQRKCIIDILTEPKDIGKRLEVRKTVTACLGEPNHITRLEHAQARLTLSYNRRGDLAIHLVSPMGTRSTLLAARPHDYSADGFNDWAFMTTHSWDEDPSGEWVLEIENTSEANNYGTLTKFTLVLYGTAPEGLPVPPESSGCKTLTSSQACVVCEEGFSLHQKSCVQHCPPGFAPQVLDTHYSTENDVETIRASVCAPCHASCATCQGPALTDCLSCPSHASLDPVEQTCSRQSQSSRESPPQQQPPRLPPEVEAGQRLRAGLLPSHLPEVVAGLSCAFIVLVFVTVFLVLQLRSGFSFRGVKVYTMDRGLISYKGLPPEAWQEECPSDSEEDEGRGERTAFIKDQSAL
Assay: furin cleavage Z-score vs untreated control; higher = more cleavage, active = 3.5 or more, inactive = 1 or less, 8 variable residues between constant flanks
Settings: 15 min
This is one part of the list. The true hit rate is not given.
Tag: true if measured furin cleavage Z-score is not below 8, false if it is.

1. CAVALRRRRHAGNASASA [FS-1577]
true
2. CAKAARAKKIAGNASASA [FS-600]
false
3. CAHPVTKYIMAGNASASA [HC980]
false
4. CAPISRRRRHAGNASASA [FS-69]
true
5. CAVLNPSVAAAGNASASA [HC787]
false
6. CAETMRRRRHAGNASASA [FS-928]
true
